# System: PMA-differentiated THP-1 cells
# method: IL-1β production in PMA-differentiated THP-1 cells stimulated with gramicidin (hTHP-1 assay containing 2% fetal bovine serum; Procedures 1 and 2)
# Type: cell-based, human
# assay conditions: Homo sapiens, THP-1, Table B2; 2% fetal bovine serum; class symbols; read-out: hTHP-1 IC50
quantity kind: IC50

# molecule, tgt, reported
measured = [
    ("Cc1c(C(C)C)nc2c(c1NC(=O)N=S(N)(=O)c1sc(C(C)(C)O)cc1F)CCC2 (centres unmarked) [Compound 645]", "PMA-differentiated THP-1 cells", "0.04 to 0.2 µM"),
    ("Cc1c(C2CC2)nc2c(c1NC(=O)N=S(N)(=O)c1ccn(C(F)F)n1)CCC2 (single isomer, unassigned) [Compound 676b]", "PMA-differentiated THP-1 cells", "1 to 5 µM"),
    ("Cc1c(C(F)(F)F)nc2c(c1NC(=O)N=S(N)(=O)c1cnn(C(F)F)c1)CCC2 (single isomer, unassigned) [Compound 617a]", "PMA-differentiated THP-1 cells", "5 to 30 µM"),
    ("CC(C)(O)c1csc(S(N)(=O)=NC(=O)Nc2cc(CC(F)(F)F)nc3c2CCC3)c1 (single isomer, unassigned) [Compound 607b]", "PMA-differentiated THP-1 cells", "1 to 5 µM"),
    ("CC1(C)CCc2c1nc1c(c2NC(=O)N=S(N)(=O)c2cnn(C(F)F)c2)CCC1 (single isomer, unassigned) [Compound 637b]", "PMA-differentiated THP-1 cells", "1 to 5 µM"),
]

Query: Tell me the measured IC50 of CC(C)n1nc(S(N)(=O)=NC(=O)Nc2c3c(nc4c2CCC4(C)C)CCC3)cc1C(C)(C)O (single isomer, unassigned) [Compound 615b] , please.
Result: 1 to 5 µM

Query: Query C[C@@H]1CCc2c1nc1c(c2NC(=O)N=S(N)(=O)c2ccn(C)n2)CCC1 (some centres unmarked) [Compound 639] next
Result: 1 to 5 µM

Query: Query COCc1nc(C(C)(C)O)sc1S(N)(=O)=NC(=O)Nc1c2c(nc3c1CCC3)CCC2 (centres unmarked) [Compound 689] next
Result: 1 to 5 µM

Query: Query Cc1nc2c(c(NC(=O)N=S(N)(=O)c3cnc(C(C)(O)CO)s3)c1C(C)C)CCC2 (centres unmarked) [Compound 627] next
Result: 0.2 to 1 µM

Query: Query CC1(C)CCc2c1nc1c(c2NC(=O)N=S(N)(=O)c2cnn3c2OCCC3)CCC1 (centres unmarked) [Compound 304] next
Result: 1 to 5 µM
